# test-name: melting temperature
# cond: nanoDSF
assay-endpoint: Tm (°C)
Give bare numbers, in °C.

Recorded Tm, per entry:
>  <record-sequence>
QVQLQESGGGSVQAGGSLRLSCVASEYDFNSYSSVSVGWFRQAPGKECVLVSRIGNDARTDYSDNVKGRFTISRDNAKRTAYLEMNSLKAEDTAVYYCAANQLSSAVVGTEYPCSKAAFAHWGQGTQVTVSS

>  <test-result>
64.5

$$$$
>  <record-sequence>
QVQLQESGGGSVQAGGSLRLPCVASGYIYSPTKMGWFRQAPGKERELVSSITRDGRPYYSDSVKGRFTISQDNAKNTVYLQMNSLKPEDTAMYYCFADVRLSAVGGIKTYWDQGTQVTVSS

>  <test-result>
63.3

$$$$
>  <record-sequence>
QVQLQESGGGSVQAGGSLRLSCAASGYTYTMGWFRQAPGKEREGVTIIYTGYDNIVYADSVKGRFTISRDNAKNTVYLQMNNLKPEDTAMYHCAAATRGLPRSYFDPGWYDSWGQGTQVTVSS

>  <test-result>
70

$$$$

Give me Tm for each of these sequences, listed below.
1. TGGGLVQAGASLRLSCAASGRTFSTDHMGWFRQAPQKEREFVAAINAWSGLSIYYADSVKGRFTISRDNDKKTAYLQMNSLKPEDTAVYYCAAKEMGRGWVPQSSDDYDAWGQGTQV
2. TGGALVQAGGSLRLSCAASETSSVSLSWMGWYRQAPGKERELVAGINRDRPKYKESVKGRFTISRDNAQNTVYLQMNSLKPEDTAVYYCNTVPPRGDYWGQGTQV

1. 66.6
2. 65.7

###

Provide the reported Tm of each item.
# test-name: melting temperature
# cond: DSF (SYPRO)
One number for each entry, in °C.

Here are 6 sequences. What values of Tm were reported for them?
1. EVQLQASGGGLVQPGGSLRLACVASGFTLEYSAIGWFRQAPGKEREAVSRIRNRDGRAIYADSVKDRFTISRDNAKSTVYLQMDSLKPEDTATYYCGRHIGVRSSWALPSEYDYWGQGTQYIYSS
2. QVKLEESGGGLVQAGGSLRLSCAASERTFSRYPVAWFRQAPGAEREFVAVISSTGTSTYYADSVKGRFTISRDNAKVTVYLQMNNLKREDTAVYFCAVNSQRTRLYDPNEYDYWGQGTQVTVSSGSEQKLISEEDLNHHHHHH
3. QVKLEESGGGLVQAGGSLRLSCAASERTFSRYPVAWFRQAPGAEREFVAVISSTGTSTYYADSVKGRFTISRDNAKVTVYLQMNNLKREDTAVYFCAVNSQRMRLQDPNEYDYWGQGTQVTVSSGSEQKLISEEDLNHHHHHH
4. QVKLEESGGGLVQAGGSLRLSCAASERTFSRYPVAWFRQAPGAEREFVAVISSTGTSTYYADSVKGRFTISRDNAKVTVYLQMNNLKREDTAVYFCAVNSQRTRLLDPNEYDYWGQGTQVTVSSGSEQKLISEEDLNHHHHHH
5. KVQLVESGGGLVQAGGSLRLACTASGSAFSINTMGWYRRAPGKQRELVASITSSGSTTYADSVKGRFTISRDSAKNTVFLQMNSVKPEDTSVYYCNGEIQRTDYNFWGQGTQVTVSS
6. QVKLEESGGGLVQAGGSLRLSCAASERTFSRYPVAWFRQAPGAEREFVAVISSTGTSTYYADSVKGRFTISRDNAKVTVYLQMNNLKREDTAVYFCAVNSQRTRLQYPNEYDYWGQGTQVTVSSGSEQKLISEEDLNHHHHHH

1: 60; 2: 79; 3: 77.4; 4: 80; 5: 59.6; 6: 73.4

###

# test-name: melting temperature
# cond: DSF (SYPRO)
Exercise: for every item that follows, state its recorded Tm.
Answer with the figure and its unit, nothing else.

>  <record-sequence>
QVQLQESGGGSVQAGGSLRLSCAVSGYTYSRNCIGWFRQAPGKEREGVAALYTGGGSTYYAASVKGRFTISQDTKNTVYLQMNSLKPEDSAMYYCAANPFGLYTCGDLRGPDFGYWGQGTQVTVSS

>  <Tm>
71 °C

$$$$
>  <record-sequence>
QVQLQESGGGSVQAGGSLRLSCAVSGYTYSSYSIGWFRQAPGKEREGVAAINSGGSTNYAGSVEGRFTISQDNAKNTVSLLMNSLKPEDTATYYCAVGAFFTLRPTLYNYKGQGTQVTVSS

>  <Tm>
48.3 °C

$$$$
>  <record-sequence>
EVQLQASGGGLVQPGGSLRLSCTASGSIFSINAMGWYRQTPRKERELVAAISEGGSTKYGDSVKGRFTISRDFAKNTQMVYLQMNSLKAEDTAVYYCKAQTEGPIADWGTSQYEYWGQGTQVTVSS

>  <Tm>
51 °C

$$$$

Consider now this further sequence.
Field request: Tm | item: QVKLEESGGGLVQAGGSLRLSCAASERTFSRYPVAWFRQAPGAEREFVAVISSTGTSTYYADSVKGRFTISRDNAKVTVYLQMNNLKREDTAVYFCAVNSKRKRLQDPNEYDYWGQGTQVTVSSGSEQKLISEEDLNHHHHHH
81.5 °C

###

For each of the sequences below, state its Tm.
# test-name: melting temperature
# cond: Circular dichroism
Give the number first and the unit second.

Would you mind giving Tm for every sequence in the list below?
1. AWVDQTPRTATKETGESLTINCVLTGTSCSLYSTSWFRKNPGTTDWERISIGGRYVESVNKGAKSFSLRIKDLTVADSATYYCKAQTADTWITVVIDGYDWYDGAGTALTVK
2. EVQLVESGGGLVQPGGSLRLSCAASGSTFSSSSVGWYRQAPGKQRELVSAITSGGSTNTADSVKGRFTISRDNSKNTLYLQMNSLRAEDTAVYYCNVAGRNWVPISRYSPGPYWGQGTLVTVSS
3. TRVDQTPRTATKETGESLTINCVLTGTSCSLYSTSWFRKNPGTTDWERISIGGRYVESVNKGAKSFSLRIKDLTVADSATYYCKAQKHCGYDWYDGAGTALTVK

1: 59 °C; 2: 60.9 °C; 3: 72 °C

###

# test-name: melting temperature
# cond: DSF (SYPRO)
assay-endpoint: Tm (°C)
Give bare numbers, in °C.

>  <record-sequence>
DVQLVESGGGSVQAGGSLRLSCAASGYIASINYLGWFRQAPGKEREGVAAVSPAGGTPYYADSVKGRFTVSLDNAENTVYLQMNSLKPEDTALYYCAAARQGWYIPLNSYGYNYWGQGTQVTVSS

>  <unit>
°C

>  <Tm>
74

$$$$
>  <record-sequence>
EVQLQASGGGLVQAGSSLRLSCAASGLTTSTLYRMGWFRQAPGKEREFVGTITWSGGSTHYPDSLKGRFTISRDDAKNTGFLQMDSLKPEDTAIYYCAARTSAGIYDPTSPPAYDSWGQGTQVTVSS

>  <unit>
°C

>  <Tm>
70

$$$$
>  <record-sequence>
QVKLEESGGGLVQAGGSLRLSCAASERTFSRYPVAWFRQAPGAEREFVAVISSTGTSTYYADSVKGRFTISRDNAKVTVYLQMNNLKREDTAVYFCAVNSKRTRLQDPNEYDYWGQGTQVTVSSGSEQKLISEEDLNHHHHHH

>  <unit>
°C

>  <Tm>
81.4

$$$$

Let us move to another entry and its Tm.
Any idea what its Tm is? The sequence is QVKLEESGGGLVQAGGSLRLSCAASERTFSRYPVAWFRQAPGAEREFVAVISSTGTSTYYADSVKGRFTISRDNAKVTVYLQMNNLKREDTAVYFCAVNSQRRRLQDPNEYDYWGQGTQVTVSSGSEQKLISEEDLNHHHHHH
79.1
